These measurements were taken from patent US20230301300A1.

Below is a list of entries, each paired with its recorded Herbicidal activity BRSNN value.
tested on: Brassica napus (BRSNN); experiment: B2 Post-Emergence Efficacy - Test 2; format: in vivo; conditions: 30 g/Ha, 15 days after application, 0-100 scale
The response must contain the number and no unit.

# input Need Herbicidal activity BRSNN, item Cc1nn(C)c(=O)c(-c2c(F)ccc(Cl)c2CCc2ccccc2C(F)(F)F)c1O
# output 90

# input Any idea what its Herbicidal activity BRSNN is? The compound is Cc1nn(C)c(=O)c(-c2c(F)ccc(Cl)c2CCc2ccc(F)cc2)c1OC(=O)C(C)C
# output 80

# input Requested read-out: Herbicidal activity BRSNN. Entry: Cc1nn(C)c(=O)c(-c2c(F)ccc(Cl)c2CCc2ccc(C#N)cc2)c1O
# output 90

# input Consider the compound Cc1nn(C)c(=O)c(-c2c(F)ccc(Cl)c2CCc2ccc(F)cc2)c1O and give its measured Herbicidal activity BRSNN.
# output 90

# input Param item = Cc1nn(C)c(=O)c(-c2c(F)ccc(Cl)c2CCc2ccc(C(F)(F)F)nc2)c1O ; retrieve measured Herbicidal activity BRSNN.
# output 90

# input Could you share which Herbicidal activity BRSNN value was measured for Cc1nn(C)c(=O)c(-c2c(F)ccc(Cl)c2CCc2ccc(Cl)cc2)c1OC(=O)C(C)C ?
# output 80

====

Test system: Glycine max (GLXMA)
Assay: B2 Post-Emergence Efficacy - Test 2
Assay type: in vivo
Details: 30 g/Ha, 15 days after application, 0=no damage, 100=total kill
Method: Seeds of a variety of test species (see Table B1) were sown in standard soil in pots. […] After application, the test plants were grown in a glasshouse under controlled conditions (as above) and watered twice daily. Herbicidal activity was evaluated 15 days after application on a 0-100 scale. […]
Herbicidal activity on a 0-100 scale, GLXMA: recorded values
# answer = number (no unit)

chemSmiles: Cc1nn(C)c(=O)c(-c2c(F)ccc(Cl)c2CCc2ccc(Cl)cc2)c1OC(=O)C(C)C
targetEntity: Glycine max (GLXMA)
observedResult: 70

# input I would be grateful if you could share the reported Herbicidal activity on a 0-100 scale, GLXMA for Cc1nn(C)c(=O)c(-c2c(F)ccc(Cl)c2CCc2ccc(C(F)(F)F)nc2)c1O .
# output 80

# input Name the recorded Herbicidal activity on a 0-100 scale, GLXMA for Cc1nn(C)c(=O)c(-c2c(F)ccc(Cl)c2CCc2ccccc2C(F)(F)F)c1O .
# output 40

# input Entry under review: Cc1nn(C)c(=O)c(-c2c(F)ccc(Cl)c2CCc2ccc(C#N)cc2)c1O . Reported Herbicidal activity on a 0-100 scale, GLXMA?
# output 80

# input Dear colleague, I am looking for the recorded Herbicidal activity on a 0-100 scale, GLXMA of the following molecule: Cc1nn(C)c(=O)c(-c2c(F)ccc(Cl)c2CCc2ccc(F)cc2)c1OC(=O)C(C)C
# output 70

# input Look up Herbicidal activity on a 0-100 scale, GLXMA: Cc1nn(C)c(=O)c(-c2c(F)ccc(Cl)c2CCc2ccc(F)cc2)c1O
# output 80

====

tested on: Setaria faberi (SETFA); experiment: B2 Post-Emergence Efficacy - Test 2; format: in vivo; details: 250 g/Ha, 15 days after application, 0=no damage, 100=total kill
measurementType: Herbicidal activity on a 0-100 scale, SETFA
When you answer, write just the number.

chemSmiles: Cc1nn(C)c(=O)c(-c2c(F)ccc(Cl)c2CCc2ccc(Cl)cc2)c1OC(=O)C(C)C
observedResult: 60
--
chemSmiles: Cc1nn(C)c(=O)c(-c2c(F)ccc(Cl)c2CCc2ccc(F)cc2)c1OC(=O)C(C)C
observedResult: 20
--
chemSmiles: Cc1nn(C)c(=O)c(-c2c(F)ccc(Cl)c2CCc2ccc(F)cc2)c1O
observedResult: 80
--
chemSmiles: Cc1nn(C)c(=O)c(-c2c(F)ccc(Cl)c2CCc2ccc(C#N)cc2)c1O
observedResult: 90
--
chemSmiles: Cc1nn(C)c(=O)c(-c2c(F)ccc(Cl)c2CCc2ccc(C(F)(F)F)nc2)c1O
observedResult: 90

# input What does the record list as Herbicidal activity on a 0-100 scale, SETFA for Cc1nn(C)c(=O)c(-c2c(F)ccc(Cl)c2CCc2ccccc2C(F)(F)F)c1O ?
# output 90

====

The reader will find reported Herbicidal activity AVEFA values listed item by item below.
tested on: Avena fatua (AVEFA); assay: B2 Post-Emergence Efficacy - Test 2; type: in vivo; conditions: 250 g/Ha, 15 days after application, 0-100 scale
Kindly provide the number alone.

Consider the worked cases shown below.
molecule: Cc1nn(C)c(=O)c(-c2c(F)ccc(Cl)c2CCc2ccc(C#N)cc2)c1O [Compound 1.024]
targetEntity: Avena fatua (AVEFA)
observedResult: 70
//
molecule: Cc1nn(C)c(=O)c(-c2c(F)ccc(Cl)c2CCc2ccc(C(F)(F)F)nc2)c1O [Compound 1.042]
targetEntity: Avena fatua (AVEFA)
observedResult: 90
//
molecule: Cc1nn(C)c(=O)c(-c2c(F)ccc(Cl)c2CCc2ccc(F)cc2)c1O [Compound 1.048]
targetEntity: Avena fatua (AVEFA)
observedResult: 90

# input Write down the reported Herbicidal activity AVEFA of Cc1nn(C)c(=O)c(-c2c(F)ccc(Cl)c2CCc2ccccc2C(F)(F)F)c1O [Compound 1.066] , test system: Avena fatua (AVEFA).
# output 90

# input Identify the measured Herbicidal activity AVEFA of Cc1nn(C)c(=O)c(-c2c(F)ccc(Cl)c2CCc2ccc(Cl)cc2)c1OC(=O)C(C)C [Compound 1.089] for Avena fatua (AVEFA).
# output 90

# input I'm curious: which Herbicidal activity AVEFA was measured for Cc1nn(C)c(=O)c(-c2c(F)ccc(Cl)c2CCc2ccc(F)cc2)c1OC(=O)C(C)C [Compound 1.125] tested on Avena fatua (AVEFA)?
# output 70

====

tested on: Bidens pilosa (BIDPI); assay: B2 Post-Emergence Efficacy - Test 2; format: in vivo; conditions: 500 g/Ha, 15 days after application, 0-100 scale
measurementType: Herbicidal activity BIDPI
Reply with just the number.

Known Herbicidal activity BIDPI results, listed for orientation:
chemSmiles: Cc1nn(C)c(=O)c(-c2c(F)ccc(Cl)c2CCc2ccccc2C(F)(F)F)c1O
Herbicidal activity BIDPI: 90

chemSmiles: Cc1nn(C)c(=O)c(-c2c(F)ccc(Cl)c2CCc2ccc(Cl)cc2)c1OC(=O)C(C)C
Herbicidal activity BIDPI: 100

chemSmiles: Cc1nn(C)c(=O)c(-c2c(F)ccc(Cl)c2CCc2ccc(C#N)cc2)c1O
Herbicidal activity BIDPI: 90

chemSmiles: Cc1nn(C)c(=O)c(-c2c(F)ccc(Cl)c2CCc2ccc(F)cc2)c1OC(=O)C(C)C
Herbicidal activity BIDPI: 100

chemSmiles: Cc1nn(C)c(=O)c(-c2c(F)ccc(Cl)c2CCc2ccc(C(F)(F)F)nc2)c1O
Herbicidal activity BIDPI: 90

# input Return reported Herbicidal activity BIDPI; argument: Cc1nn(C)c(=O)c(-c2c(F)ccc(Cl)c2CCc2ccc(F)cc2)c1O
# output 100

====

# Herbicidal activity CHEAL per record follows
test system: Chenopodium album (CHEAL); assay: B2 Post-Emergence Efficacy - Test 2; assay type: in vivo; conditions: 125 g/Ha, 15 days after application, 0-100 scale
Answer using only a numeral; do not append any unit.

Use these answered entries as a reference point.
molecule: Cc1nn(C)c(=O)c(-c2c(F)ccc(Cl)c2CCc2ccc(C(F)(F)F)nc2)c1O [Compound 1.042]
Herbicidal activity CHEAL: 90
//
molecule: Cc1nn(C)c(=O)c(-c2c(F)ccc(Cl)c2CCc2ccccc2C(F)(F)F)c1O [Compound 1.066]
Herbicidal activity CHEAL: 90
//
molecule: Cc1nn(C)c(=O)c(-c2c(F)ccc(Cl)c2CCc2ccc(C#N)cc2)c1O [Compound 1.024]
Herbicidal activity CHEAL: 90
//
molecule: Cc1nn(C)c(=O)c(-c2c(F)ccc(Cl)c2CCc2ccc(F)cc2)c1OC(=O)C(C)C [Compound 1.125]
Herbicidal activity CHEAL: 90
//
molecule: Cc1nn(C)c(=O)c(-c2c(F)ccc(Cl)c2CCc2ccc(F)cc2)c1O [Compound 1.048]
Herbicidal activity CHEAL: 70

Now for a further molecule.
# input Query (molecule): Cc1nn(C)c(=O)c(-c2c(F)ccc(Cl)c2CCc2ccc(Cl)cc2)c1OC(=O)C(C)C [Compound 1.089] ; field requested: Herbicidal activity CHEAL
# output 100

====

Catalogue of Herbicidal activity GALAP readings, one per entry.
system: Galium aparine (GALAP); assay: B2 Post-Emergence Efficacy - Test 2; type: in vivo; conditions: 125 g/Ha, 15 days after application, 0-100 scale

Some solved entries appear below for comparison.
chemSmiles: Cc1nn(C)c(=O)c(-c2c(F)ccc(Cl)c2CCc2ccc(C#N)cc2)c1O
Herbicidal activity GALAP: 60

chemSmiles: Cc1nn(C)c(=O)c(-c2c(F)ccc(Cl)c2CCc2ccccc2C(F)(F)F)c1O
Herbicidal activity GALAP: 20

chemSmiles: Cc1nn(C)c(=O)c(-c2c(F)ccc(Cl)c2CCc2ccc(F)cc2)c1O
Herbicidal activity GALAP: 60

chemSmiles: Cc1nn(C)c(=O)c(-c2c(F)ccc(Cl)c2CCc2ccc(F)cc2)c1OC(=O)C(C)C
Herbicidal activity GALAP: 30

chemSmiles: Cc1nn(C)c(=O)c(-c2c(F)ccc(Cl)c2CCc2ccc(C(F)(F)F)nc2)c1O
Herbicidal activity GALAP: 80

Okay, now this compound:
# input Record request: Herbicidal activity GALAP value, item Cc1nn(C)c(=O)c(-c2c(F)ccc(Cl)c2CCc2ccc(Cl)cc2)c1OC(=O)C(C)C
# output 30
